target: Hepcidin (Homo sapiens) (UniProt P81172); assay: Inhibition of human hepcidin-stimulated recombinant C-terminal Halo-tagged human FPN internalization in MDCK cells at 10 uM incubated for 15 to 20 mins by Halo-tagged TMR based fluorescence assay relative to control; type: cell-based
Sequence (P81172 60-84 limits assumed): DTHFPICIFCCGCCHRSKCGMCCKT
Consider the following compounds; for each one, report its inhibition.

Record COCCN1CCN(C(CN2CCC(N3CCCCC3)CC2)c2ccccc2)CC1 (stereo unspecified) , field inhibition: > 50%

Record COc1ccc(CNC(CN2CCC(N3CCCCC3)CC2)c2ccccc2)cc1 (stereo unspecified) , field inhibition: < 50%

Record O=C(C1CCCO1)N1CCN(CC(NCc2ccccn2)c2ccc(F)cc2)CC1 (stereo unspecified) , field inhibition: < 50%

Record O=C(C1CCCO1)N1CCN(CC(NCc2ccccn2)c2ccccc2)CC1 (stereo unspecified) , field inhibition: < 50%

Record Fc1ccc(C(CN2CCN(c3cnccn3)CC2)NCc2ccccn2)cc1 (stereo unspecified) , field inhibition: > 50%

Record c1ccc(C(CN2CCC(N3CCCCC3)CC2)NCCN2CCOCC2)cc1 (stereo unspecified) , field inhibition: < 50%

###

Consider the following compounds; for each one, report its pIC50.
target: Ferroportin (Homo sapiens, UniProt Q9NP59); assay: Inhibition of human hepcidin-stimulated recombinant C-terminal Halo-tagged human FPN internalization in MDCK cells incubated for 15 to 20 mins by Halo-tagged TMR based fluorescence assay
Sequence (Q9NP59 whole entry, looked up): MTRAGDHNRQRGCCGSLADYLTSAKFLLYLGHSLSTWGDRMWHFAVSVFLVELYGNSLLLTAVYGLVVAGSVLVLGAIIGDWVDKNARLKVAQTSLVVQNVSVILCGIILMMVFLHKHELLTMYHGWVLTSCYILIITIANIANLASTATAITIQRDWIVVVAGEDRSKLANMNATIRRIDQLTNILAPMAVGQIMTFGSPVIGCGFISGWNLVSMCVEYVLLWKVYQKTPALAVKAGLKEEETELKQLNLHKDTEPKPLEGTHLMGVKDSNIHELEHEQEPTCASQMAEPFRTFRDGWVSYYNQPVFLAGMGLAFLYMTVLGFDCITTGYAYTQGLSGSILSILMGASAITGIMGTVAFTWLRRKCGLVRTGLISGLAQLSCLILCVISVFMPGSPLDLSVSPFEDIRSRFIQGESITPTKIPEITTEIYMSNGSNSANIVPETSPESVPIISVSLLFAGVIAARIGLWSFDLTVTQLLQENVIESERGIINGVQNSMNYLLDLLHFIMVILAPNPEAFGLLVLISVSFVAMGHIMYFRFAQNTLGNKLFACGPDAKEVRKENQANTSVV
pIC50: −log10 of the molar value.

Record COCCN1CCN(C(CN2CCC(C3CCCCC3)CC2)c2ccccc2)CC1 (configuration not stated) , field pIC50: < 4.00

Record COc1ccc(CNC(CN2CCC(N3CCCCC3)CC2)c2ccccc2)cc1 (configuration not stated) , field pIC50: > 4.00

Record COCCNC(CN1CCN(c2cnccn2)CC1)c1ccc(F)cc1 (configuration not stated) , field pIC50: < 4.00

Record COCCN1CCN(C(CN2CCC(C(=O)Nc3ccccc3)CC2)c2ccccc2)CC1 (configuration not stated) , field pIC50: > 4.00

Record COCCN1CCN(C(CN2CCC(N3CCCCC3)CC2)c2cccc(Cl)c2)CC1 (configuration not stated) , field pIC50: < 4.00

Record Fc1ccccc1C(CN1CCN(c2cnccn2)CC1)NCc1ccccn1 (configuration not stated) , field pIC50: < 4.00

Record c1ccc(C(CN2CCCCC2)NCCN2CCOCC2)cc1 (configuration not stated) , field pIC50: > 4.00

Record CCCCN1CCN(C(CN2CCC(N3CCCCC3)CC2)c2ccccc2)CC1 (configuration not stated) , field pIC50: < 4.00

Record CCOC(=O)C1CCN(CC(c2ccccc2)N2CCN(CCOC)CC2)CC1 (configuration not stated) , field pIC50: < 4.00

Record COCCN1CCN(C(CN2CCC(N3CCCCC3)CC2)c2ccccc2Cl)CC1 (configuration not stated) , field pIC50: < 4.00

Record COCCC1CCN(C(CN2CCC(N3CCCCC3)CC2)c2ccccc2)CC1 (configuration not stated) , field pIC50: < 4.00

Record COCCN1CCN(C(CN2CCC(C(=O)NC3CCCCC3)CC2)c2ccccc2)CC1 (configuration not stated) , field pIC50: < 4.00

Record Fc1cccc(C(CN2CCN(c3cnccn3)CC2)NCc2ccccn2)c1 (configuration not stated) , field pIC50: < 4.00

Record COc1ccc(CNC(CN2CCCCC2)c2ccccc2)cc1 (configuration not stated) , field pIC50: < 4.00

Record COCCN1CCCN(C(CN2CCC(N3CCCCC3)CC2)c2ccccc2)CC1 (configuration not stated) , field pIC50: > 4.30

Record O=S(=O)(c1ccccc1)N1CCN(CC(NCc2ccccn2)c2ccc(F)cc2)CC1 (configuration not stated) , field pIC50: < 4.00

Record COCCN1CCN(C(CN2CCCCC2)c2ccccc2)CC1 (configuration not stated) , field pIC50: > 4.00

Record NC(CN1CCN(C(=O)C2CCCO2)CC1)c1ccc(F)cc1 (configuration not stated) , field pIC50: < 4.00

Record COCCN1CCN(C(CN2CCC(N3CCCCC3)CC2)c2ccc(Cl)cc2)CC1 (configuration not stated) , field pIC50: < 4.00

Record c1ccc(C(CN2CCC(N3CCCCC3)CC2)N2CCN(C3CCCC3)CC2)cc1 (configuration not stated) , field pIC50: < 4.00

Record O=C(C1CCCO1)N1CCN(C(CN2CCC(N3CCCCC3)CC2)c2ccccc2)CC1 (configuration not stated) , field pIC50: < 4.00

Record Fc1ccc(C(CN2CCN(c3cnccn3)CC2)NCc2cccs2)cc1 (configuration not stated) , field pIC50: < 4.30
